Values from paper PMC9721440

This section lists pIC50 readings for AChE from Electrophorus electricus (eeAChE) (Electrophorus electricus).
Would you please state pIC50, meaning minus log10 of the concentration in mol/L, as a bare number?

Reported pIC50 of OC[C@@H]1[C@@H](O)[C@H](O)CN1Cc1cn(CCCNc2c3c(nc4ccccc24)CCCC3)nn1 [Compound 10a] : 6.28

###

# assayed.target: BuChE from equine serum (eqBuChE) (Equus caballus)
# Construct: BuChE from equine serum
# Sequence (P81908 whole entry): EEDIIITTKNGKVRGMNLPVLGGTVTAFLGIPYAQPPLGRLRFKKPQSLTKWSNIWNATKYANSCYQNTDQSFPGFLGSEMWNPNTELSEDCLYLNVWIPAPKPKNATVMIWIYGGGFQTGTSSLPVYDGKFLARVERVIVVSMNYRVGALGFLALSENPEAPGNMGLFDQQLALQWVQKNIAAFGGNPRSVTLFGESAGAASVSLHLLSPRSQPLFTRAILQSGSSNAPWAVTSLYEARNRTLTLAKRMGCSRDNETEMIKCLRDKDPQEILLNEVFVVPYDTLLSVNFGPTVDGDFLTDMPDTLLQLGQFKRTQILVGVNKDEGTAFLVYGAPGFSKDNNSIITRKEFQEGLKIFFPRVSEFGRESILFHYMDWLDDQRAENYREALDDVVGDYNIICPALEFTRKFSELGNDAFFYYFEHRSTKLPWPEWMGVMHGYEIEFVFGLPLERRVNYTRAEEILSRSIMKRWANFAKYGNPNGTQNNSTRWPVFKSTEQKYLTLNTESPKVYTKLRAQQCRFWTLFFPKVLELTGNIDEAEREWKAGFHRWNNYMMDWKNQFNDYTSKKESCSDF
# protocol: biochemical
# recorded.conditions: [S] = 112 µM; mean ± SD
pIC50: −log10 of the molar value.
Please use True whenever pIC50 is not below 7, and False whenever it is.

INSERT INTO assay_data (compound, class_assignment) VALUES
  ('OC[C@H]1[C@H](O)[C@@H](O)CN1Cc1cn(CCNc2c3c(nc4ccccc24)CCCC3)nn1', 'False'),
  ('OC[C@H]1[C@H](O)[C@@H](O)CN1Cc1cn(CCCNc2c3c(nc4ccccc24)CCCC3)nn1 [Compound 10b]', 'False'),
  ('OC[C@@H]1[C@@H](O)[C@H](O)CN1Cc1cn(CCCNc2c3c(nc4ccccc24)CCCC3)nn1 [Compound 10a]', 'False');

Ask: Check this compound for pIC50 at or above 7: OCC1C(O)C(O)CN1Cc1cn(CCCCCCNc2c3c(nc4ccccc24)CCCC3)nn1 (stereo not drawn) [Compound 11a]
Reply: True

Ask: Check this compound for pIC50 at or above 7: OC[C@H]1[C@H](O)[C@@H](O)CN1Cc1cn(CCCCCCNc2c3c(nc4ccccc24)CCCC3)nn1 [Compound 11b]
Reply: True

###

# assayed.target: AChE from Electrophorus electricus (eeAChE) (Electrophorus electricus)
# Sequence (O42275 24-633): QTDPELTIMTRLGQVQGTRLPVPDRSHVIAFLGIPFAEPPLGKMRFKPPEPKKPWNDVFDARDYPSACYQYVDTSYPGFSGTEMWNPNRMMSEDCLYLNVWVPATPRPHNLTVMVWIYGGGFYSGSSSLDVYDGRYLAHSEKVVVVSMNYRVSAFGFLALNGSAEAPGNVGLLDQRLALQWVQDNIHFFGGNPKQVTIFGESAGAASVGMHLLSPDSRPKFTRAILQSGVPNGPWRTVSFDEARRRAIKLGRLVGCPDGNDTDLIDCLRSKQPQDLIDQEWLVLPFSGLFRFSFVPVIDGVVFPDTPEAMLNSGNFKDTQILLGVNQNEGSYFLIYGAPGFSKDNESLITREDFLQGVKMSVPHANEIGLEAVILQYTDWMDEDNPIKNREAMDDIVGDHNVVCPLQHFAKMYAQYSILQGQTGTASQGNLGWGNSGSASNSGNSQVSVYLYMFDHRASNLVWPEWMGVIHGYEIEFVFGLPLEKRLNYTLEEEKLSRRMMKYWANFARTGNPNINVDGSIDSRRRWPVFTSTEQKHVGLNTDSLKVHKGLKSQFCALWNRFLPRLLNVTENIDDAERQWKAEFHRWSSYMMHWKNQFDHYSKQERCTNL
Recorded log10 of IC50 by entry
Kindly note that the scale is log10 and the underlying IC50 is in nM.

Record excerpt, results attached:
INSERT INTO measurements (compound, endpoint_label, reported_result) VALUES
  ('OC[C@@H]1[C@@H](O)[C@H](O)CN1Cc1cn(CCNc2c3c(nc4ccccc24)CCCC3)nn1', 'log10 of IC50', 2.62),
  ('OC[C@H]1[C@H](O)[C@@H](O)CN1Cc1cn(CCCCCCNc2c3c(nc4ccccc24)CCCC3)nn1 [Compound 11b]', 'log10 of IC50', 1.03),
  ('OC[C@H]1[C@H](O)[C@@H](O)CN1Cc1cn(CCCNc2c3c(nc4ccccc24)CCCC3)nn1 [Compound 10b]', 'log10 of IC50', 2.18);

Given the compound `OC[C@H]1[C@H](O)[C@@H](O)CN1Cc1cn(CCNc2c3c(nc4ccccc24)CCCC3)nn1` and test system AChE from Electrophorus electricus (eeAChE) (Electrophorus electricus), the measured log10 of IC50 is 3.17

Given the compound OCC1C(O)C(O)CN1Cc1cn(CCCCCCNc2c3c(nc4ccccc24)CCCC3)nn1 (centres unmarked) [Compound 11a] and test system AChE from Electrophorus electricus (eeAChE) (Electrophorus electricus), the measured log10 of IC50 is 0.99
